Assay: Primary qHTS to identify inhibitors of SARS-CoV-2 cell entry (AID 1645846)
Conditions: SARS-CoV-2 pseudovirus cell entry assay, luminescence; at 57.1 µM (top of the series) unless noted
Records with an inconclusive call do not appear.

| compound | activity change, negative = inhibition [%] |
| --- | --- |
| CC(C)CCCC(C)CCCC(C)CCCCC(C)CCCC(C)CCCC(C)C (configuration not stated) | -16.5 |
| CN(C)c1ccc(C2Nc3ccc4ccccc4c3C3=C2C(=O)CC(C)(C)C3)cc1Br (configuration not stated) | -8.04 |
| CCC(=O)O[C@@H]1C=C2CCC3C(CCC4(C)C3CC[C@@H]4OC(=O)CC)C2CC1 (some centres not stated) | 4.26 |
| Cc1cccc(-c2[nH]ncc2-c2ccc3ncccc3n2)n1 | -1.7 |
| C[C@H](CN1CCCC1)C(=O)c1ccc(C(F)(F)F)cc1 | -4.68 |
| Cc1ccccc1-n1c(Cn2ncc3c(N)ncnc32)nc2cccc(C)c2c1=O | -50.6 |
| CNCc1ccc(-c2[nH]c3cc(F)cc4c3c2CCNC4=O)cc1 | -28.3 |
| COc1ccc(-c2c(-c3ccc(O)cc3O)n[nH]c2C)cc1 | -56.7 |
| O=[N+]([O-])c1ccc([As](=O)(O)O)cc1 | 1.4 |
| COc1ccc2c(c[n+](C)c3c4cc5c(cc4ccc23)OCO5)c1OC | -96.4 |
| CCNC(=O)c1noc(-c2cc(C(C)C)c(O)cc2O)c1-c1ccc(CN2CCOCC2)cc1 | -24.6 |
| O=S(=O)(F)Cc1ccccc1 | -1.91 |
| O=C(O)c1ccccn1 | -3.73 |
| O=C(Oc1ccc([N+](=O)[O-])cc1)N1CCC(C(O)(c2ccc3c(c2)OCO3)c2ccc3c(c2)OCO3)CC1 | -17.3 |
| Cn1c(Nc2ccc(C(F)(F)F)cc2)nc2cc(Oc3ccnc(-c4ncc(C(F)(F)F)[nH]4)c3)ccc21 | -24.1 |
| CC(C)(Sc1ccc(CCN(CCCCC2CCCCC2)C(=O)NC2CCCCC2)cc1)C(=O)O | 4.91 |
| c1ccc(-c2nn3c(c2-c2ccnc4cc(OCCN5CCOCC5)ccc24)CCC3)nc1 | 3.16 |
| O=c1[nH]c2ccc(Cl)cc2c(N[C@@H]2CN3CCC2CC3)c1-c1nc2ccccc2[nH]1 | -97.1 |
| C[C@@H](Oc1cc(-n2cnc3ccc(CN4CCN(C)CC4)cc32)sc1C(N)=O)c1ccccc1C(F)(F)F | -97 |
| CN1[C@H]2CC(O)C[C@H]1[C@H]1O[C@H]12 (some centres not stated) | 0.905 |
| Cc1[nH]nc2ccc(-c3cncc(OC[C@@H](N)Cc4c[nH]c5ccccc45)c3)cc12 | -97.4 |
| CN(C)CC/C=C1/c2ccccc2COc2ccc(CC(=O)O)cc21 | -14.5 |
| Cn1cncc1[C@@](N)(c1ccc(Cl)cc1)c1ccc2c(c1)c(-c1cccc(Cl)c1)cc(=O)n2C | -13 |
| CCCCC(CC)COC(=O)/C=C/c1ccc(OC)cc1 (configuration not stated) | -3.29 |
| CCN(CC)C(=O)c1ccc(C2=CC3(CCNCC3)Oc3cccc(O)c32)cc1 | -22.9 |
| c1ccc2c(CN3CCNCC3)cccc2c1 | -23.2 |
| O=C(Nc1ccc(F)c(C(F)(F)F)c1)Nc1nnc(-c2ccncc2)s1 | -21.1 |
| CCOC(=O)C(C)Oc1cccc2c(=O)n(CC(=O)Nc3ccc4c(c3)OCCO4)ccc12 (configuration not stated) | -0.424 |
| CC(C)C[C@H](NC(=O)[C@@H](O)[C@H](N)Cc1ccccc1)C(=O)O | -29.5 |
| CC(=O)OCCN1C(=O)c2c(C)nc3ccc(S(=O)(=O)N4CCOCC4)cc3c2C1=O | 2.17 |
| CC(C)OC(=O)C1=CN(C(=O)c2ccc(F)c(F)c2)CC(C)(C)c2c1[nH]c1ccccc21 | -3.59 |
| C#CC1(O)CCC2C3CCC4=CC(=O)CCC4(C)C3CCC21C (configuration not stated) | -0.771 |
| CC(C[N+](C)(C)C)OC(N)=O (configuration not stated) | -6.96 |
| CCCCCN(CCC12CC3CC(CC(C3)C1)C2)C(=O)NCCCc1ccncc1 | -12.6 |
